SYSTEM_UNDER_TEST: human PAH with the R408W mutation (Homo sapiens, UniProt P00439, R408W)
Construct: expressed in transfected cells
Sequence (P00439 1-452 R408W): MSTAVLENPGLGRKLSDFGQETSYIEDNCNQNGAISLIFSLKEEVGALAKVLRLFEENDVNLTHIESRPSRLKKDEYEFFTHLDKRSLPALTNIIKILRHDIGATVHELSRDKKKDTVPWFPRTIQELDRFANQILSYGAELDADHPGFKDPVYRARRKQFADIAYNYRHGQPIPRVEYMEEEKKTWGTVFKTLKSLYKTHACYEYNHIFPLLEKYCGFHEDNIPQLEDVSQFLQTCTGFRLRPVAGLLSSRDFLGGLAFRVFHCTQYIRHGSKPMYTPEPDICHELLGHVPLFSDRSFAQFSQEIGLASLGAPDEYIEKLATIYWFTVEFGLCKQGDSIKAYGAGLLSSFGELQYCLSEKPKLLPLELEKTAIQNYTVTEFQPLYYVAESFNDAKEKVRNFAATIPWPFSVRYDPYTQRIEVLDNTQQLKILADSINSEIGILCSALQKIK
ASSAY_EXPLANATION: Cell Based Phenylalanine Flux Assay;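 further: Ten-point dose curve from 2-fold serial dilutions, run in duplicate at 0.5% DMSO final, tracer step used 20 µM sepiapterin and 800 µM labeled phenylalanine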
CONDITION_DESCRIPTION: A375 cells expressing human R408W PAH; 24 hrs with compound, then sepiapterin and 13C9,15N-Phenylalanine for 4 hours; 13C-Tyrosine by LC-MS; average where tested multiple times; read-out: AC50
Below, each of the compounds is paired with its reported AC50 value.

Recorded AC50, per entry:
stdin: Give the observed AC50 of FC(F)(F)c1ccc(N2CCc3[nH]cnc3[C@H]2c2cc3cccc(Cl)n3n2)nc1 [Example 2136] for human PAH with the R408W mutation (Homo sapiens, UniProt P00439, R408W).
stdout: < 0.5 µM

stdin: Quote human PAH with the R408W mutation (Homo sapiens, UniProt P00439, R408W) AC50 for entry FC(F)c1cccn2nc([C@H]3c4nc[nH]c4CCN3c3nnc(C(F)(F)F)o3)cc12 [Example 1766] .
stdout: 0.5 to 1 µM

stdin: Quote AC50 with test system human PAH with the R408W mutation (Homo sapiens, UniProt P00439, R408W) for Cn1nccc1-c1nnc(C(=O)N2CCc3[nH]cnc3[C@@H]2c2cc3c(C(F)F)cccn3n2)o1 [Example 1533]
stdout: > 5 µM

New cases:
stdin: Report AC50 on human PAH with the R408W mutation (Homo sapiens, UniProt P00439, R408W) for this entry: Fc1cccc(F)c1-c1nnc(N2CCc3[nH]cnc3[C@@H]2c2cc3c(Cl)cccn3n2)o1 [Example 2062]
stdout: > 5 µM
